- TARGET_SYSTEM: UniProt:P49841
MEASURE_NAME: IC50 (nM)

Guide cases for IC50, answers given:
Cc1ccc(C2=C(c3cn(CCCn4ccnc4)c4ccc(Br)cc34)C(=O)NC2=O)cc1 :: 190
Cc1ccc2c(c1)c(C1=C(c3ccc4ccccc4c3)C(=O)NC1=O)cn2CCCn1ccnc1 :: 5140
O=C1NC(=O)C(c2cn(CCCn3ccnc3)c3ccc(Br)cc23)=C1c1cccs1 :: 90

[A] Cc1ccc2c(C3=C(c4ccccc4[N+](=O)[O-])C(=O)NC3=O)cn(CCCn3ccnc3)c2c1
[B] O=C1NC(=O)C(c2cn(CCCn3ccnc3)c3ccc(Br)cc23)=C1c1ccc2ccccc2c1
Lab note: record which item had the higher IC50, A or B . Could you answer with the label of the item you picked? A
(A: 100 nM, B: 69 nM)

---

- TARGET_SYSTEM: Glycogen synthase kinase-3 beta (Homo sapiens)
- Sequence (P49841 whole entry): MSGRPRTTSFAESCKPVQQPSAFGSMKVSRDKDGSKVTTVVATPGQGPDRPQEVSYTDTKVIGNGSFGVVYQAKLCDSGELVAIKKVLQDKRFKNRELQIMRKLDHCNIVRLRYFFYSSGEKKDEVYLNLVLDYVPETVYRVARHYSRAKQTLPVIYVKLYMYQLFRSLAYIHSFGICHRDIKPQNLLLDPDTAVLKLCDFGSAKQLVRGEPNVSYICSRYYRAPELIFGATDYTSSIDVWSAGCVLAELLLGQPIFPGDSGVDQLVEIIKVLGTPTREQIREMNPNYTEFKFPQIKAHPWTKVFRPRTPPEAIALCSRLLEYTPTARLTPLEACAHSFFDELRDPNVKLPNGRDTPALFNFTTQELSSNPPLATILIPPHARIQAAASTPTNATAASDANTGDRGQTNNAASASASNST
- METHOD_DESCRIPTION: Inhibition of GSK3beta (unknown origin) activity assessed as fluorescence intensity by ADP-Glo Kinase Assay
MEASURE_NAME: IC50 (nM)

Guide cases for IC50, answers given:
COc1ccccc1C1=C(c2cn(CCCn3ccnc3)c3cc(Br)ccc23)C(=O)NC1=O :: 21
O=C1NC(=O)C(c2cn(CCCn3ccnc3)c3ccc(Br)cc23)=C1c1ccc2c(c1)OCO2 :: 44
COc1ccccc1C1=C(c2cn(CCCn3ccnc3)c3ccc(Br)cc23)C(=O)NC1=O :: 5200

[P] Cc1ccc2c(c1)c(C1=C(c3ccccc3C)C(=O)NC1=O)cn2CCCn1ccnc1
[Q] COc1ccc2c(C3=C(c4ccccc4F)C(=O)NC3=O)cn(CCCn3ccnc3)c2c1
Among P and Q , whose measured IC50 is the smaller figure? Could you answer with the label of the item you picked? Q
(Q: 11 nM, P: 73 nM)

---

As an illustration, consider measured IC50 for compounds on Glutaminyl-peptide cyclotransferase (Homo sapiens, UniProt Q16769).
Sequence (Q16769 whole entry): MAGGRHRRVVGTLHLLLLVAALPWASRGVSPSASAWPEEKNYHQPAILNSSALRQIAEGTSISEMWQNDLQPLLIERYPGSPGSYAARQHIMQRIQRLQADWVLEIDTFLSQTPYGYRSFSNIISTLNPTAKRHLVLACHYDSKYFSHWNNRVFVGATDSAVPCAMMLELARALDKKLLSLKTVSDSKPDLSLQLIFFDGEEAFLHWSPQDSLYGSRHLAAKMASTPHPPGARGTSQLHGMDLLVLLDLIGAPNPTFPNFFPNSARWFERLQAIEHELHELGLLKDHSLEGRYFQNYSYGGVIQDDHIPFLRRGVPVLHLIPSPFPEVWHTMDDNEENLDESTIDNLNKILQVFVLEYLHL
MEASURE_NAME: IC50 (µM)

Guide cases for IC50, answers given:
O=C1NC(=O)C(c2cn(CCCn3ccnc3)c3ccc(Br)cc23)=C1c1cc(F)c(F)cc1F :: 2.35
COc1ccc2c(c1)c(C1=C(c3ccccc3OC)C(=O)NC1=O)cn2CCCn1ccnc1 :: 2.44
Cc1ccc(C2=C(c3cn(CCCn4ccnc4)c4ccc(C)cc34)C(=O)NC2=O)cc1 :: 5.47
Cc1ccc(C2=C(c3cn(CCCn4ccnc4)c4ccccc34)C(=O)NC2=O)cc1 :: 4.34
COc1ccc2c(c1)c(C1=C(c3ccccc3[N+](=O)[O-])C(=O)NC1=O)cn2CCCn1ccnc1 :: 9.91
Cc1ccccc1C1=C(c2cn(CCCn3ccnc3)c3cc(Br)ccc23)C(=O)NC1=O :: 3.85

[a] Cc1ccc2c(c1)c(C1=C(c3ccccc3C)C(=O)NC1=O)cn2CCCn1ccnc1
[b] Cc1ccc(C2=C(c3cn(CCCn4ccnc4)c4cc(C)ccc34)C(=O)NC2=O)cc1
Lab note: record which item had the higher IC50, a or b . Could you answer with the label of the item you picked? b

---

- TARGET_SYSTEM: Glutaminyl-peptide cyclotransferase (Homo sapiens)
MEASURE_NAME: IC50 (µM)

Guide cases for IC50, answers given:
O=C1NC(=O)C(c2cn(CCCn3ccnc3)c3ccc(Br)cc23)=C1c1ccccc1[N+](=O)[O-] :: 4.28
COc1ccc(C2=C(c3cn(CCCn4ccnc4)c4ccc(Br)cc34)C(=O)NC2=O)cc1OC :: 3.16
O=C1NC(=O)C(c2cn(CCCn3ccnc3)c3ccccc23)=C1c1ccc(F)cc1 :: 1.34
COc1ccc2c(C3=C(c4ccccc4F)C(=O)NC3=O)cn(CCCn3ccnc3)c2c1 :: 10.8

[P] O=C1NC(=O)C(c2cn(CCCn3ccnc3)c3cc(Br)ccc23)=C1c1ccccc1F
[Q] Cc1ccc(C2=C(c3cn(CCCn4ccnc4)c4ccc(Br)cc34)C(=O)NC2=O)cc1
[R] Cc1ccc2c(C3=C(c4ccccc4[N+](=O)[O-])C(=O)NC3=O)cn(CCCn3ccnc3)c2c1
Hey, quick one: sort these by IC50, low to high? Please write the labels in the order that was asked for. Q, P, R

[a] Cc1ccccc1C1=C(c2cn(CCCn3ccnc3)c3ccc(Br)cc23)C(=O)NC1=O
[b] O=C1NC(=O)C(c2cn(CCCn3ccnc3)c3cc(Br)ccc23)=C1c1ccc(F)cc1
[c] Cc1ccc2c(C3=C(c4ccc5ccccc5c4)C(=O)NC3=O)cn(CCCn3ccnc3)c2c1
Hey, quick one: sort these by IC50, low to high? Please write the labels in the order that was asked for. b, a, c

[a] COc1ccc2c(c1)c(C1=C(c3ccccc3C)C(=O)NC1=O)cn2CCCn1ccnc1
[b] COc1ccccc1C1=C(c2cn(CCCn3ccnc3)c3ccc(Br)cc23)C(=O)NC1=O
Among a and b , whose measured IC50 is the smaller figure? Could you answer with the label of the item you picked? a

[I] O=C1NC(=O)C(c2cn(CCCn3ccnc3)c3ccccc23)=C1c1ccc2ccccc2c1
[II] CC(C)(C)c1ccc(C2=C(c3cn(CCCn4ccnc4)c4ccc(Br)cc34)C(=O)NC2=O)cc1
Lab note: record which item had the higher IC50, I or II . Could you answer with the label of the item you picked? II
